# System: HCT-116 colon
# Protocol Description: NCI-60 one-dose screen, 48 h
# Conditions Used: 10 µM unless noted
# Description: Growth inhibition of the HCT-116 human tumor cell line is measured as a screen for anti-cancer activity. Cells are grown in 96 well plates and exposed to the test compound for 48 hours. Compounds are tested at a single concentration, which is 10^-5 M for most compounds. The reported endpoint is percent growth (GI% or GIPRCNT), where numbers from 0 - 100% represent growth inhibition, and numbers from -100% - 0 represent cell death. For example, a value of 40 represents 60% growth inhibition. […]
This is part of a sample that, as a whole, favours compounds with a hit. Of some 83,000 tested, about 20% had one in any assay. Active and inactive are the calls of the source. Rule for the calls: active = growth percent below 10; inactive = the rest.
Outcomes: y for active, n for inactive

>>> label_value("CCOC(=O)c1cc(-c2cccnc2)nc2c(Cl)cc(Cl)cc12")
"n"
>>> label_value("Cc1cc(C)n(C(=O)c2nn(-c3ccc(Cl)cc3)cc2O)n1")
"y"
>>> label_value("Clc1ccc(-c2nc(-c3cccs3)no2)c(Cl)c1")
"n"
>>> label_value("O=C1NCN(c2ccccc2)C12CCN(CCCC(c1ccc(F)cc1)c1ccc(F)cc1)CC2")
"n"
>>> label_value("COc1cccc(-c2nnc(N)o2)c1")
"n"
>>> label_value("CSc1nc2c(c(=O)n1C)C(c1ccccc1)C1=C(N2)/C(=C/c2ccccc2)CCC1 (stereo not given)")
"n"
>>> label_value("CC1CC(C)/C(=N/NC(N)=O)C(C(O)CC2CCC(=O)NC2=O)C1 (stereo not given)")
"n"
>>> label_value("NCCCc1nnc(CCC(=O)c2nc3ccccc3[nH]2)o1")
"n"
>>> label_value("CC(C)[C@]12O[C@H]1[C@@H]1O[C@]13[C@]1(O[C@H]1C[C@H]1C4=C(CC[C@@]13C)C(=O)OC4)[C@@H]2OC(=O)CN(C)C")
"y"
>>> label_value("Cc1c(C)c(N2C(=O)C=CC2=O)c(C)c(C)c1N1C(=O)C=CC1=O")
"n"
>>> label_value("C=C(C)[C@H]1CC/C(C)=C/CC[C@]2(C)O[C@H]2CC/C(COC(C)=O)=C\\C1=O")
"n"
>>> label_value("COc1ccc(-n2nnc(C(=O)O)c2-c2cc(OC)c(OC)c(OC)c2)cc1")
"n"
>>> label_value("O=C1c2ccccc2C(=O)c2c1cccc2-n1nnc2ccccc21")
"n"
>>> label_value("O=C(Nc1nc(-c2ccc(Cl)cc2)cs1)c1cc(O)c(O)c(O)c1")
"n"
>>> label_value("Cc1scc2c1N(C(=O)CN1CCN(C)CC1)c1ccccc1NC2=O")
"n"
>>> label_value("COC1CC2CCC(C)C(O)(O2)C(=O)C(=O)N2CCCCC2C(=O)OC(C(C)CC2CCC(O)C(OC)C2)CC(=O)C(C)C=C(C)C(O)C(OC)C(=O)C(C)CC(C)/C=C/C=C/C=C1C (stereo not given)")
"n"
>>> label_value("CN(C)c1ccc(/C=C(\\C#N)c2nc3ccccc3c(=O)[nH]2)cc1")
"n"
>>> label_value("O=C1CC(C(F)(F)F)=NN1C(=O)c1nn(-c2ccc(Cl)cc2)cc1O")
"n"
>>> label_value("c1csc([C@@H]2C[C@@H]3Cc4ccc5ccccc5c4N2O3)c1")
"n"
>>> label_value("Cc1cc(C)c(OC(=O)CSc2nc3ccccc3c(=O)n2CCc2ccccc2)cc1C")
"n"

###

# Tested on: HT29 colon
# Protocol Description: NCI-60 one-dose screen, 48 h
# Conditions Used: 10 µM unless noted
# Description: Growth inhibition of the HT29 human tumor cell line is measured as a screen for anti-cancer activity. Cells are grown in 96 well plates and exposed to the test compound for 48 hours. Compounds are tested at a single concentration, which is 10^-5 M for most compounds. The reported endpoint is percent growth (GI% or GIPRCNT), where numbers from 0 - 100% represent growth inhibition, and numbers from -100% - 0 represent cell death. For example, a value of 40 represents 60% growth inhibition. […]
The panel holds about 83,000 compounds, 20% with a hit somewhere; the sample as a whole holds those more often. Activity calls are given as the source filed them. The calls were made as follows: active = growth percent below 10; inactive = the rest.
Outcomes: True = active, False = inactive

>>> label_value("O=C(CN1CCCCC1)Sc1nnc2sc3ccccc3n12")
"False"
>>> label_value("O=C1c2nsnc2C(=O)c2c(F)c(F)c(F)c(F)c21")
"True"
>>> label_value("O=C(CCc1nnc2sc(-c3ccc(Cl)cc3Cl)nn12)c1nc2ccccc2[nH]1")
"True"
>>> label_value("OC(CCC(O)(c1ccccc1)c1ccccc1)(c1ccccc1)c1ccccc1")
"False"
>>> label_value("COc1cc2c(c(OC)c1OC)-c1ccc(NN(C(=O)c3ccccc3)C(=O)c3ccccc3)c(=O)cc1[C@@H](NC(C)=O)CC2 (tested in a mixture with another compound)")
"True"
>>> label_value("CC[N+](C)(CC)CCCC(C)Nc1ccnc2cc(Cl)ccc12 (stereo not drawn)")
"False"
>>> label_value("CC(=O)Oc1c(C)c(OC(C)=O)c2c(c1C(C)=O)OC1CC(=O)C(C(C)=O)=C(O)C21C (stereo not drawn)")
"False"
>>> label_value("COc1ccc(-c2nn(-c3ccccc3)cc2/C=C2\\SC(=S)N(CCc3ccc(O)cc3)C2=O)cc1")
"False"
>>> label_value("COc1cccc(C2C(C#N)=C(N)Oc3cc(OC)ccc32)c1 (stereo not drawn)")
"True"
>>> label_value("Cn1c(N)c(N=O)c(=O)[nH]c1=O")
"False"
>>> label_value("CCCCCCCCSc1ncnc2c1ncn2CO")
"False"
>>> label_value("O=C(O)c1ccc(NC(=O)c2cccc(Nc3ccnc(C(F)(F)F)c3)c2)cc1")
"False"
>>> label_value("CCC[C@H](N[C@@H](C)C(=O)N1[C@H](C(=O)O)C[C@@H]2CCCC[C@@H]21)C(=O)OCC")
"False"
>>> label_value("CN1CCN(Cc2ccc(NC(=O)c3[nH]ncc3Nc3ccnc4ccnn34)cc2)CC1")
"False"
>>> label_value("CCCCSc1cc(C)nc(N)n1")
"False"
>>> label_value("COc1cccc(CCC2C(=O)CCCC2=O)c1")
"False"
>>> label_value("COc1cc(C2NC(c3ccc(Cl)cc3)C(C)/C(=N/NC(N)=S)C2C)cc(OC)c1OC (stereo not drawn)")
"False"
>>> label_value("CCN(CC)CCCNCCCNc1cc(OC)cc2cccnc12")
"False"
>>> label_value("Fc1ccc([C@@H]2CCNC[C@H]2COc2ccc3c(c2)OCO3)cc1")
"False"
>>> label_value("O=C1NC(=O)/C(=C\\c2ccccc2)C2=C1CCCC2")
"False"
>>> label_value("CCOc1nc(-c2ccccc2)cc2c(O)c(C(=O)n3nc(C)cc3C)[nH]c(=O)c12")
"False"
>>> label_value("Cc1nn(-c2ccc(Br)cc2)c2nc3c(nc12)C(=O)C(=O)c1ccccc1-3")
"False"
>>> label_value("O=C(C(Br)Br)C(Br)C(Br)c1ccccc1 (stereo not drawn)")
"True"
>>> label_value("Cc1c(C)c(N2C(=O)C=CC2=O)c(C)c(C)c1N1C(=O)C=CC1=O")
"False"
>>> label_value("CCCCCCCCCCSc1ncnc2nc[nH]c12")
"False"
>>> label_value("CCCCCCC/C(=N\\N=C(N)N)c1ccc(O)cc1")
"True"
>>> label_value("COc1ccc(-c2noc(N)c2-c2cc(OC)c3c(c2)OCO3)cc1")
"True"
>>> label_value("COc1cc(OC)c2cc(C(=O)O)c(=O)oc2c1")
"False"
>>> label_value("CCCc1cc(=O)n2c(C(=O)Nc3ccccc3OC)c(C(=O)Nc3ccc(F)cc3)sc2n1")
"False"
>>> label_value("COc1cc2c(cc1OCCCCCn1c(-c3ccc(OCc4ccccc4)cc3)nc3cc(N4CCOCC4)ccc31)N=C[C@@H]1CCCN1C2=O")
"True"
>>> label_value("CCn1c2c(c3ccccc31)SC1c3cccn3CCN1C2=S (stereo not drawn)")
"False"
>>> label_value("C=Cc1nn2c(CCC(=O)c3nc4ccccc4[nH]3)nnc2s1")
"False"
>>> label_value("O=C(O)c1ccc(NC(=O)c2ccc(Nc3ccnc(C(F)(F)F)c3)cc2)cc1")
"False"
>>> label_value("O=C(/C=C/c1ccccc1)CC(c1ccccc1)N1CCOCC1 (stereo not drawn)")
"True"
>>> label_value("CCc1[nH]nc(-c2ccc(OC)cc2)c1-c1ccccc1OCCN(CC)CC")
"False"
>>> label_value("O=C(CCc1nnc2sc(Cc3ccccc3Cl)nn12)c1nc2ccccc2[nH]1")
"False"
>>> label_value("CCN(CC)CCOc1ccc(C2=C(c3ccccc3)CCc3cc(OC)ccc32)cc1")
"True"
>>> label_value("CC(C)[C@]12O[C@H]1[C@@H]1O[C@]13[C@]1(O[C@H]1C[C@H]1C4=C(CC[C@@]13C)C(=O)OC4)[C@@H]2OC(=O)CN(C)C")
"True"
>>> label_value("COc1ccc(-c2cnnn2-c2cc(OC)c3c(c2)OCO3)cc1")
"True"
>>> label_value("COc1ccc(/C=N/NC(=O)c2ccc(S(C)(=O)=O)cc2)cc1OC")
"False"
>>> label_value("C/C(=N/N=C(N)N)c1ccc(N)cc1")
"False"
>>> label_value("Nc1cc(Cl)c(S(N)(=O)=O)cc1S(N)(=O)=O")
"False"
>>> label_value("COc1cc2cn3c4ccc(O)cc4nc(N)c3c2cc1OC")
"False"

The origin of these recorded values is PubChem BioAssay (NCI).
